molecular target: CYP2C19 (Homo sapiens); assay: Inhibition of CYP2C19 (unknown origin) at 10 uM relative to control; format: ADME
Sequence (P33261 whole entry): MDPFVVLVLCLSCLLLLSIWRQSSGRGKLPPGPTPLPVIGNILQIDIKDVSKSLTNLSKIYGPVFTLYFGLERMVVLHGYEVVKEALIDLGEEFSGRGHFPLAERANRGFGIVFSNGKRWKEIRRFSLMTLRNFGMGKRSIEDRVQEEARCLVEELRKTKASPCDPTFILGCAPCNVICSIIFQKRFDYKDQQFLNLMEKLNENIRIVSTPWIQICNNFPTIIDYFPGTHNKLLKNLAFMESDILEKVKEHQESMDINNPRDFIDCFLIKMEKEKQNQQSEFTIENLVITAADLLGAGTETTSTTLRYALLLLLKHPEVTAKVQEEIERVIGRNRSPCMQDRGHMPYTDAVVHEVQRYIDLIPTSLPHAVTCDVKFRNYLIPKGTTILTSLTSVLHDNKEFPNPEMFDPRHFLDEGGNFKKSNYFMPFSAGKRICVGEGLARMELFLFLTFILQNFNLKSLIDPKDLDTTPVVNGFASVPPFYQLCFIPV
observed property: inhibition at 10 µM (%)
Dear colleague, please return just the value in %, with no unit written.

Qu. inhibition at 10 µM for `Cc1nn(C(C)(C)C)c2nc(C3CC3)cc(C(=O)N3CCOc4ccncc43)c12` ?
Ans. 17.4

---

assay: Permeability of the compound across basolateral to apical side in human Caco-2 cells at pH 7.4; type: ADME, cell-based; details: Caco-2, pH 7.4, read-out: permeability
observed property: Papp B→A (×10⁻⁶ cm/s)
Dear colleague, please return just the value in ×10⁻⁶ cm/s, with no unit written.

Qu. Papp B→A for `Cc1nn(C(C)(C)C)c2nc(C3CC3)cc(C(=O)N3CCOc4ccncc43)c12` ?
Ans. 23.7

Where do these numbers come from? They come from ChEMBL document CHEMBL5608197.
